Measured values drawn from PubChem BioAssay AID2124 for this set.

# experimental-protocol: cell-permeable autofluorescent compounds in GFP channel, dose response, artefact control, imaging, high-content imaging (AID 2124);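 further: cells exposed to compound for 48 hours before fixing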
# test-conditions: cells, GFP-channel autofluorescence, high-content imaging; cell count; at 10 µM
Inconclusive results are not listed.
Form field: cell count (one value per entry).
quantity: cell count (cells)

{"molecule": "CN1CCNC(=O)C1CC(=O)NCCC1=CCCCC1 (stereo unspecified)", "reported": 3160}
{"molecule": "COc1cc([N+](=O)[O-])ccc1-c1ccc(/C=N/NC(N)=O)o1", "reported": 2860}
{"molecule": "COc1cc([C@@H]2[C@H]3CN(C)CC=C3C(C#N)=C(N)C2(C#N)C#N)cc2c1OCO2", "reported": 3070}
{"molecule": "N#Cc1ccc(-c2ccc(Cl)cc2)nc1SCC(=O)c1cccc(Cl)c1", "reported": 3130}
{"molecule": "COc1ccccc1Nc1nc(Cl)c(C=O)s1", "reported": 2970}
{"molecule": "N#C/C(=C\\c1ccc(-c2ccc(C(=O)O)cc2)o1)c1nc2ccccc2[nH]1", "reported": 3280}
{"molecule": "COc1ccc(/C=C2\\C(=O)NC(=S)N2C(=O)c2ccc(F)cc2)cc1", "reported": 2980}
{"molecule": "CC(C)N1CC=C2C(C#N)=C(N)C(C#N)(C#N)C(c3ccccc3)C2C1 (stereo unspecified)", "reported": 3040}
{"molecule": "COC(=O)c1sccc1NC(=O)c1cc(OC)c(OC)c(OC)c1", "reported": 3020}
{"molecule": "CN1C(=S)N(c2cccnc2)C(=O)/C1=C\\c1ccc(N(C)C)cc1", "reported": 3030}
{"molecule": "Cc1ccc(S(=O)(=O)C(C#N)c2nc3ccccc3nc2N2CCC(C)CC2)cc1 (stereo unspecified)", "reported": 3260}
